- Assayed system: T1, human G-protein-coupled receptor family C group 5 member D (GPRC5D) (human, UniProt Q9NZD1 1-345)
- T1 construct: whole, on cells; also called human GPRC5D protein
- T1 sequence (Q9NZD1 whole entry): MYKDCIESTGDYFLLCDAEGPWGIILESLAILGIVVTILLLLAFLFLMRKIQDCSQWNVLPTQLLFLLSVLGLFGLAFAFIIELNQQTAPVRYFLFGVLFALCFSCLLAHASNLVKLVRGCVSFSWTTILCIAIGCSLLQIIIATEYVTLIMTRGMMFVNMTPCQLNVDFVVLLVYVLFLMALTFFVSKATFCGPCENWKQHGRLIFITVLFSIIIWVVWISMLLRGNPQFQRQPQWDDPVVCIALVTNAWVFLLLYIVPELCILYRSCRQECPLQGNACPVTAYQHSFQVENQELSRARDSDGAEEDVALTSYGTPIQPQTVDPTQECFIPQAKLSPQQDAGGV
- Assay procedure: FACS, CHO-K1/human GPRC5D, hybridoma supernatant
- Procedure: Antibodies harvested from the supernatants of the hybridomas were tested for their binding to the human GPRC5D protein expressed on CHO K1 cells was tested. CHO—K1 cells stably expressed human GPRC5D, were harvested from flasks. 100 µl of 1×10^6 cells/ml of cells were incubated with murine antibodies in 3-fold serial dilutions for 30 minutes on ice. […] Cells were washed with 200 µl of FACS buffer twice and transferred to BD Falcon 5 ml tube and analyzed by FACS.
Reported LogEC50 is given for each of the following binders.
A bare number is all that is needed in reply.

Some binders with recorded LogEC50:
Binder	Assay result
34D3H1 (antibody, V domains shown, murine antibody from hybridoma supernatant) VH: EVHLVESGGDLVKPGGSLKLSCAASGFTFSSYGMSWVRQTPDKRLEWVATISSGGSYTYYPDSVKGRFTISRDNAKNTLNLQMSSLKSEDTAMYYCARQGGDAMDYWGQGTSVTVSS VL: DIVLTQSPATLSVTPGDSVSLSCRASQSINNNLHWYQQKSHESPRLLIKYASQSISGIPSRFSGSGSGTDFTLSINSVETEDFGMYFCQQSNSRLTFGAGTKLELK	0.884
21C3C11B3 (antibody, V domains shown, murine antibody from hybridoma supernatant) VH: QVQLQQSGAELVRPGTSVKVSCKASGYAFINYLIEWIKQRPGQGLEWIGMINPGSGGTNYNEKFKDKATLTADKSSSTAYMQLSSLTSDDSAVYFCARNWDVWGQGTTLTVSS VL: DVVMTQSPLSLPVSLGDQASVSCRSSQSLVHSTGNTYLHWYLQKPGQSPKLLIYKVSNRFSGVPDRFSGSGSGTDFTLKISRVEAEDLGVYFCSQSTHVPWTFGGGTKLEIK	0.654

Now for a further binder.
q: Please supply the value of reported LogEC50 for the item 40A5B2 (antibody, V domains shown, murine antibody from hybridoma supernatant) VH: EVQLQQSGPELVKPGASVKMSCKASGYTFTRNIMHWVKQKPGQGLEWIGYINPYNAGSKYNEKFKGKATLTSDISSSTAYMELSSLTSEDSAVYYCAREEVYYRYGAWFAYWGHGTLVTVSA VL: DIVLTQSPASLAVSLGQRATISCRASQSVSTSSYSYMHWYQQKPGQPPKLLIKYASNLESGVPARFSGSGSGTDFTLNIHPVEEEDTATYYCQHSWEIPRTFGGGTKLEIK
a: 0.511
